# Method: Inhibition of bovine heart mitochondria ATP synthase in presence of PEP, PK, LDH and NADH for 1 hrs by MitoTox microplate assay
# Set-up: species or system Bos taurus
Quantity kind: IC50 (µM)
Write down the numeric answer in µM and omit the unit.

Request: So what's the measured IC50 for this one? `CNC(=O)c1cc(Oc2ccc(NC(=O)Nc3ccc(Cl)c(C(F)(F)F)c3)cc2)ccn1`
Response: 2.5

* * *

# Test system: MDA-MB-231
# Method: Antiproliferative activity against human MDA-MB-231 cells assessed as reduction in cell viability incubated for 48 hrs by MTT assay
# Type: functional, cell-based
# Details: MDA-MB-231, 48 h
Quantity kind: pIC50
The meaning of pIC50 here: minus log10 of the concentration in molar units.

Solved cases (2 shown):
- COc1cc(=O)oc(/C=C/C=C/C=C/[C@@H]2O[C@]3(C)[C@@H](OC(C)=O)[C@](C)(O[C@@H]3[C@@H](C)O)[C@H]2O)c1C: 7.10
- CC[C@H]1O[C@@]2(C)[C@H](O)[C@@]1(C)O[C@@H](/C=C/C=C/C=C/c1oc(=O)cc(OC)c1C)[C@@H]2O: 5.06

Please find the next compound below.
Request: So what's the measured pIC50 for this one? `CC[C@H]1O[C@@]2(C)[C@H](OC(C)=O)[C@@]1(C)O[C@@H](/C=C/C=C/C=C/c1oc(=O)cc(OC)c1C)[C@@H]2O`
Response: 5.26

* * *

# Method: Inhibition of bovine heart mitochondrial F0F1-ATP synthase for 1 hr by microplate reader analysis
# Assay type: mitochondria, Bos taurus, Mitochondria
Quantity kind: pIC50
The meaning of pIC50 here: minus log10 of the concentration in molar units.

Request: So what's the measured pIC50 for this one? Cc1oncc1C(=O)Nc1ccc(C(F)(F)F)cc1 [LEFLUNOMIDE]
Response: 4.46

* * *

# Method: Non-competitive inhibition of bovine heart mitochondrial F0F1-ATP synthase incubated for 25 mins by ATPase assay
# Format: mitochondria, Bos taurus, Mitochondria
Quantity kind: pIC50
The meaning of pIC50 here: minus log10 of the concentration in molar units.

Request: So what's the measured pIC50 for this one? `NCCc1ccc(Oc2ccc(O)cc2)c(I)c1`
Response: 4.56

* * *

# Method: Inhibition of bovine heart mitochondrial F0F1-ATPase assessed as decrease in rate of ATP hydrolysis by fluorescence assay
# Assay type: mitochondria, Bos taurus, Mitochondria
Quantity kind: Ki
Note to self: number, then unit, no commentary.

Request: So what's the measured Ki for this one? `CC[C@H]1O[C@@]2(C)[C@H](OC(C)=O)[C@@]1(C)O[C@@H](/C=C/C=C/C=C/c1oc(=O)cc(OC)c1C)[C@@H]2O`
Response: 120 nM

* * *

# Test system: Cortical neurone
# Method: Neuroprotective activity against rat Primary cortical neuron cells assessed as rescue of cell death incubated for 2 days by fluorescent live-dead assay
# Assay type: functional, cell-based
# Details: 48 h
Quantity kind: EC50 (nM)
Write down the numeric answer in nM and omit the unit.

Request: So what's the measured EC50 for this one? `COc1cccc(/C=N/N(C(=O)C(F)(F)F)c2ccc(C)cc2C)c1`
Response: 25

* * *

# Method: Inhibition of yeast mitochondrial F0F1-ATPase incubated for 15 mins by colorimetric assay
# Type: mitochondria, Saccharomyces cerevisiae, Mitochondria
Quantity kind: pIC50
The meaning of pIC50 here: minus log10 of the concentration in molar units.

Request: So what's the measured pIC50 for this one? `CCC[C@H](O)[C@@H](C)C(=O)NC/C=C\C[C@@H](C)[C@@H](O)[C@H](C)[C@@H]1C/C=C\C[C@H](C)[C@H](O)Cc2cc(OC)cc(O)c2C(=O)O1`
Response: 7.82
